- test details: reversal of MRP1-mediated doxorubicin resistance, pilot screen, H69AR cells, doxorubicin co-treatment (AID 601)
- stated conditions: H69AR cells, CellTiter-Glo, 72 h; compound alone cytotoxicity; at 10 µM
outcome measure: viability (%)

* CCOc1ccc(N(CC(=O)NC2CCCC2)S(=O)(=O)c2c(C)[nH]c(=O)[nH]c2=O)cc1 | 101
* O=C(c1ccc2c(c1)OCCO2)C1CCN(C(=O)c2ccc(F)cc2)CC1 | 83.8
* COc1ccc(OCCC(=O)NCc2ccccc2)cc1 | 103
* CCc1c(C(=O)N2CCOCC2)csc1C | 106
* CCCN(CCC)C(=O)CSc1nc2ccccc2c(=O)n1C1CCCC1 | 66.7
* Cc1c(C(=O)NCCC2=CCCCC2)oc2ccc(S(=O)(=O)N3CCC4(CC3)OCCO4)cc12 | 48.1
* CCn1c(=O)cc(SCC(=O)Nc2cccnc2)c2ccccc21 | 104
* CCOC(=O)N1CCN(C(=O)CSc2nnc(Cc3ccccc3)o2)CC1 | 103
* CCOc1ccccc1C(=O)NCCC(=O)O | 96.4
* O=C(NCc1cccnc1)c1ccccc1Br | 95.1
* CCn1c(SCc2nc3ccccc3c(=O)[nH]2)nnc1-c1cccnc1 | 95.2
* CCOc1ccc2nc(SCC(=O)N3CCCCCC3)c(C#N)cc2c1 | 86.2
* CN(C)c1nc(Oc2ccc(=O)n(C)n2)nc(N2CCOCC2)n1 | 92.9
* c1ccc(CC2CCN(c3nc4ccccc4n4nnnc34)CC2)cc1 | 81.5
* CCCCC(CC)C(=O)Nc1ccc(Cl)cn1 (centres undefined) | 94.3
* Cc1cc(C)cc(NC(=O)C2CCCN(c3nccc(C)n3)C2)c1 (centres undefined) | 104
* Cc1ccc(NC(=O)C2CCCN(S(=O)(=O)c3cnc[nH]3)C2)cc1F (centres undefined) | 95.1
* CCCn1cc(SCC(=O)NCc2ccco2)c2ccccc21 | 94
* CCn1nc(C)c(NC(=O)c2cc(Br)ccc2Cl)c1C | 94
* Cn1c(=O)c2c3c(sc2n2c(SCc4ccccc4)nnc12)CCCC3 | 87.5
* CC(C)(C)c1cc(CCC(=O)N2CCNCC2)c(C(C)(C)C)cc1O | 98.3
* N#CCSc1nc2c(c(C3CC=CCC3)c1C#N)CCC2 (centres undefined) | 100
* Cc1c(NS(=O)(=O)c2ccc3c(c2)c(=O)n(C)c(=O)n3C)c(=O)n(-c2ccccc2)n1C | 95.7
* O=c1oc2ccccc2c2c1ncn2-c1ccccc1 | 89.1

----------
- tgt: Receptor tyrosine-protein kinase erbB-2 (Homo sapiens)
- test details: reducers of endogenous Her2 protein level, primary screen, SKBR3 breast tumor cells, AlphaScreen, ATP viability (AID 461);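 note: lower value means less Her2 protein in the cells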
- stated conditions: 18-24 h, at 10 µM, stronger effect = lower value
Quick list: Her2 level per entry.
outcome measure: Her2 level (%)

- Cc1cc(Cl)c(S(=O)(=O)NC2CCCCC2)cc1OCC(=O)Nc1nncs1: 88
- O=C(CN1C(=O)CSC1=O)Nc1ccc(N2CCOCC2)cc1: 122
- Cc1cc(C(=O)Nc2ccccc2C#N)n(-c2ccccc2)n1: 100
- O=C(c1cc2ccccc2oc1=O)N1CCSC1c1ccco1 (stereo unspecified): 93.5
- COc1cc(C(=O)Nc2cc(Cl)ccc2C)c(-n2cnnn2)cc1OC: 98
- COc1cc(NS(=O)(=O)N2CCCC2)cc(OC)c1OC: 95.5
- COc1ccc(C(=O)N2CCN(c3nc4cc(C)ccc4cc3C#N)CC2)c(OC)c1: 98
- CCN(CCCNC(=O)C1CCN(S(=O)(=O)c2cccc3nonc23)CC1)Cc1ccccc1: 90
- COc1ccc2nc(SCC(=O)NC(C)C)[nH]c2c1: 106
- O=C(Nc1ccc(CN2CCCCC2)cc1)c1ccc2c(c1)OCO2: 75
- CN(C(=O)c1ccccc1Cl)c1ccccc1: 83.5
